Molecular target: Receptor-interacting serine/threonine-protein kinase 1 (Homo sapiens) (UniProt Q13546)
Sequence (whole entry): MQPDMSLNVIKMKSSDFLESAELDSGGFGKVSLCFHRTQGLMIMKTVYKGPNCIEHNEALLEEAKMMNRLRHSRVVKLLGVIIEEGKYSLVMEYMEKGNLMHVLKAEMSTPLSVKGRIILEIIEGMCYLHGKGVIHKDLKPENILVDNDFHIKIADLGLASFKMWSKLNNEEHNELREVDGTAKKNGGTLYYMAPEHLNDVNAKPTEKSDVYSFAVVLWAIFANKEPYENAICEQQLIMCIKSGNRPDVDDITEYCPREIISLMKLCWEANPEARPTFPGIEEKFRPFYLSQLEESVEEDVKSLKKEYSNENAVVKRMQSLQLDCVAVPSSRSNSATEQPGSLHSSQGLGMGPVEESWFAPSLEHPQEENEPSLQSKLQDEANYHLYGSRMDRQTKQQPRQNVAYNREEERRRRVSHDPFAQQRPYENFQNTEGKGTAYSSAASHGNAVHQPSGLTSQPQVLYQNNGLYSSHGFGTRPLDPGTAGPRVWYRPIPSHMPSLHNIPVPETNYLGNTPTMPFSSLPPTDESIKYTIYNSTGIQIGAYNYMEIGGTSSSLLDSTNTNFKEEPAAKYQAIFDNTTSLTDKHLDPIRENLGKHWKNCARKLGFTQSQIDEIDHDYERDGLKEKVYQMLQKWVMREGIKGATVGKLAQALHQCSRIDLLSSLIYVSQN
Experiment: Inhibition of recombinant RIPK1 (1 to 327 residues) (unknown origin) expressed in Escherichia coli BL21([…]) using MBP as substrate preincubated for 15 mins followed by substrate and ATP addition and measured after 90 mins by ADP-Glo luminescence […] assay
Conditions: time 105.0 min
Activity calls are given as the source filed them. The calls are words filed in the database; no cut-off is given here.
measure.name: Inhibition activity call

// solved cases for Inhibition activity call follow
INSERT INTO assay_data (smiles_input, system_name, measurement) VALUES
  ('Nc1cc(-c2ccc(Br)cc2)nn1Cc1ccccc1', 'Receptor-interacting serine/threonine-protein kinase 1 (Homo sapiens) (UniProt Q13546)', 'Active'),
  ('Cc1cc(C)c(C(N)=O)c(Nc2ccc(Cl)cc2)n1', 'Receptor-interacting serine/threonine-protein kinase 1 (Homo sapiens) (UniProt Q13546)', 'Active'),
  ('CN(C(=O)c1cccn(Cc2cccc(F)c2)c1=O)c1ccccc1', 'Receptor-interacting serine/threonine-protein kinase 1 (Homo sapiens) (UniProt Q13546)', 'Active'),
  ('O=C1c2cccc3cccc(c23)N1Cc1ccc(F)cc1', 'Receptor-interacting serine/threonine-protein kinase 1 (Homo sapiens) (UniProt Q13546)', 'Active'),
  ('O=C(NCCc1ccccc1)C1CCN(C(=O)c2ccccc2F)CC1', 'Receptor-interacting serine/threonine-protein kinase 1 (Homo sapiens) (UniProt Q13546)', 'Active');

Kindly consider the entry below.
(Q) For Receptor-interacting serine/threonine-protein kinase 1 (Homo sapiens) (UniProt Q13546), provide Inhibition activity call of `Cc1c(Cc2ccccc2)sc(NC(=O)c2ccccc2)c1C(N)=O` please.
(A) Active

---

target: Voltage-gated inwardly rectifying potassium channel KCNH2 (Homo sapiens, UniProt Q12809); test: Inhibition of human ERG expressed in CHO cells by Qpatch clamp method
Sequence (Q12809 whole entry): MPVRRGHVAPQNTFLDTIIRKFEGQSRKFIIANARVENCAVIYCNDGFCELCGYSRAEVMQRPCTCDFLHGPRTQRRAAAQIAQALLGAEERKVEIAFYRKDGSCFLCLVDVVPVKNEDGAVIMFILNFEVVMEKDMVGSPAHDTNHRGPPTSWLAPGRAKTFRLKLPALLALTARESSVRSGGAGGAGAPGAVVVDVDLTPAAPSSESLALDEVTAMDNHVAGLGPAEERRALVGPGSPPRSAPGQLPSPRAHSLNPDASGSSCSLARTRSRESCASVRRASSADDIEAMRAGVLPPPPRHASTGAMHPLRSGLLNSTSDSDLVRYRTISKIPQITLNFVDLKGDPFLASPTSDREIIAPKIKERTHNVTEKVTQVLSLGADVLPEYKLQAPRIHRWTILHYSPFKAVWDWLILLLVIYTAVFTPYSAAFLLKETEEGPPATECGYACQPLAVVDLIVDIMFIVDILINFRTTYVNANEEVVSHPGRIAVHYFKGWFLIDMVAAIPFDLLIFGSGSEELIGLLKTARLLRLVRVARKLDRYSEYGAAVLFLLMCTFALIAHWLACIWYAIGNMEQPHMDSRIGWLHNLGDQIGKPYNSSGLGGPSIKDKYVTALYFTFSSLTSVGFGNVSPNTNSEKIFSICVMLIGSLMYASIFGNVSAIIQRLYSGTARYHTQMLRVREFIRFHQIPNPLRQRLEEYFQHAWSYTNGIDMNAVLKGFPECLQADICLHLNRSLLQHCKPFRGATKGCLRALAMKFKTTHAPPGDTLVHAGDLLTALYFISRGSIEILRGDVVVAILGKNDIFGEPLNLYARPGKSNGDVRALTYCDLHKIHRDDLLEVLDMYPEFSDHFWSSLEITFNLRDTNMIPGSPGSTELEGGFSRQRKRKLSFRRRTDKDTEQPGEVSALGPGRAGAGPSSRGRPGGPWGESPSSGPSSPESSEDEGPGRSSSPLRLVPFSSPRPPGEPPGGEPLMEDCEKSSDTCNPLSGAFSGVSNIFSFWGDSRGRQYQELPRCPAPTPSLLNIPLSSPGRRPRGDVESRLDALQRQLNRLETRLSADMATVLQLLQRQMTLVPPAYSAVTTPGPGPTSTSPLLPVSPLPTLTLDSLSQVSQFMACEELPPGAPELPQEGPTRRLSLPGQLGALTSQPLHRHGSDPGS
measure.name: IC50

(Q) Give the measured IC50 of `Cc1cc(F)cc(Nc2ncc(Nc3ccc(SC(F)(F)F)cc3)cc2C(N)=O)c1` .
(A) > 20 µM
